target: SARS-CoV RBD-His (#40150-V08B2, Sino Biological) (SARS-CoV, UniProt P59594 306-527); test: ELISA, coated His-tagged antigen
OUTCOME MEASURE: binding result

| BINDER | ASSAY VALUE |
| --- | --- |
| SA3755 (antibody, V domains shown) VH: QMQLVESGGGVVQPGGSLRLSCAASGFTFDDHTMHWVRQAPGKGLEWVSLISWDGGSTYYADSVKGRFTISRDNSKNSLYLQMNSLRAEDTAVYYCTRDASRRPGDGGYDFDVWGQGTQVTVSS VL: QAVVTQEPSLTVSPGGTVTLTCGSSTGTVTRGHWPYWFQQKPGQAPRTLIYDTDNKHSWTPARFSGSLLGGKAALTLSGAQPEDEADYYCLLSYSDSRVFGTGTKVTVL | no binding |
| SA4044 (antibody, V domains shown) VH: EVQLVQSGGGLIQPGGSLRLSCAASGFTVSSNYMSWVRQAPGKGLEWVSVIYSGGSTYYADSVKGRFTISRDNSKNTLHLQMNSLRAEDTAVYYCARDLPQFDGFDYWGQGTLVTVSS VL: QSALTQPPSLSVAPGRTARITCGGNNIGSKSVNWYQHMPGQAPVLVIYSDTDRPSGIPERVSGSKSGNTATLSISRVEAGDEADYYCQVWDSTTDHVVFGGGTKLTVL | no binding |
| SA4050 (antibody, V domains shown) VH: QVQLVESGAEVKKPGASVKVSCKASGYTFTGYFIHWVRQAPGQGLEWMGWINPNSGGTNYAQKFQGRVTMTRDTSISTAYMELSRLRSDDTAVYYCARVPHLSGYYYEGVLGYFDYWGQGTLVTVSS VL: QSALTQPASVSGSPGQSITISCTGTSIDIGSYNFVSWYQRHPGKAPRLLIYDVSDRPSGVSNRFSGSKSANTASLTISGLQAEDEADYYCSSYTSSSLWVFGGGTKLTVL | no binding |
